Here's a batch of compounds along with measured pIC50 for EGFR (Homo sapiens (Human), UniProt P00533).
When answering, recall that pIC50 equals minus log10 of the concentration in mol/L, and write that number alone.

>  <Compound>
Cc1cc(Nc2ncnc3cnc(N4CC[C@]45CCOC5)nc23)ccc1Oc1ccn2ncnc2c1 [Example 374]

>  <pIC50>
5.93

$$$$
>  <Compound>
Cc1cc(Nc2ncnc3cnc(N(C)[C@H]4C[C@](C)(O)C4)nc23)ccc1Oc1ccc2c(c1)ncn2C [Example 171]

>  <pIC50>
6.33

$$$$
>  <Compound>
Cc1cc(Nc2ncnc3cnc(N4CCC5COCC54)nc23)ccc1Oc1ccn2ncnc2c1 (stereo not drawn) [Example 420]

>  <pIC50>
5.80

$$$$
>  <Compound>
Cc1cc(Nc2ncnc3cnc(N4CCCS4(=O)=O)nc23)ccc1Oc1ccc2c(c1)ncn2C [Example 139]

>  <pIC50>
5.80

$$$$

Enquiry: Given the compound Cc1cc(Nc2ncnc3cnc(NCC4(O)COC4)nc23)ccc1Oc1ccc2c(c1)ncn2C [Example 319] , what is its reported pIC50?
Return: 6.06

Enquiry: Given the compound Cc1cc(Nc2ncnc3cnc(N4[C@H]5CC[C@@H]4[C@@H](O)C5)nc23)ccc1Oc1ccc2c(c1)ncn2C (racemic) [Example 105] , what is its reported pIC50?
Return: 5.00

Enquiry: Given the compound CC1(C)CN(c2ncc3ncnc(Nc4ccc(Oc5ccn6ncnc6c5)c(Cl)c4)c3n2)C[C@H]1O [Example 339] , what is its reported pIC50?
Return: 5.28

Enquiry: Given the compound Cc1cc(Nc2ncnc3cnc(N[C@H]4CCOC4)nc23)ccc1Oc1ccc2c(c1)ncn2C [Example 17] , what is its reported pIC50?
Return: 5.63

---

# Experimental System: ErbB2 with Exon 20 YVMA insertion (HER2-YVMA) (Homo sapiens (Human), UniProt P04626, INS775YVMA)
# Sequence (P04626 other isoform, or with tags, fused parts or gaps ins YVMA behind 775): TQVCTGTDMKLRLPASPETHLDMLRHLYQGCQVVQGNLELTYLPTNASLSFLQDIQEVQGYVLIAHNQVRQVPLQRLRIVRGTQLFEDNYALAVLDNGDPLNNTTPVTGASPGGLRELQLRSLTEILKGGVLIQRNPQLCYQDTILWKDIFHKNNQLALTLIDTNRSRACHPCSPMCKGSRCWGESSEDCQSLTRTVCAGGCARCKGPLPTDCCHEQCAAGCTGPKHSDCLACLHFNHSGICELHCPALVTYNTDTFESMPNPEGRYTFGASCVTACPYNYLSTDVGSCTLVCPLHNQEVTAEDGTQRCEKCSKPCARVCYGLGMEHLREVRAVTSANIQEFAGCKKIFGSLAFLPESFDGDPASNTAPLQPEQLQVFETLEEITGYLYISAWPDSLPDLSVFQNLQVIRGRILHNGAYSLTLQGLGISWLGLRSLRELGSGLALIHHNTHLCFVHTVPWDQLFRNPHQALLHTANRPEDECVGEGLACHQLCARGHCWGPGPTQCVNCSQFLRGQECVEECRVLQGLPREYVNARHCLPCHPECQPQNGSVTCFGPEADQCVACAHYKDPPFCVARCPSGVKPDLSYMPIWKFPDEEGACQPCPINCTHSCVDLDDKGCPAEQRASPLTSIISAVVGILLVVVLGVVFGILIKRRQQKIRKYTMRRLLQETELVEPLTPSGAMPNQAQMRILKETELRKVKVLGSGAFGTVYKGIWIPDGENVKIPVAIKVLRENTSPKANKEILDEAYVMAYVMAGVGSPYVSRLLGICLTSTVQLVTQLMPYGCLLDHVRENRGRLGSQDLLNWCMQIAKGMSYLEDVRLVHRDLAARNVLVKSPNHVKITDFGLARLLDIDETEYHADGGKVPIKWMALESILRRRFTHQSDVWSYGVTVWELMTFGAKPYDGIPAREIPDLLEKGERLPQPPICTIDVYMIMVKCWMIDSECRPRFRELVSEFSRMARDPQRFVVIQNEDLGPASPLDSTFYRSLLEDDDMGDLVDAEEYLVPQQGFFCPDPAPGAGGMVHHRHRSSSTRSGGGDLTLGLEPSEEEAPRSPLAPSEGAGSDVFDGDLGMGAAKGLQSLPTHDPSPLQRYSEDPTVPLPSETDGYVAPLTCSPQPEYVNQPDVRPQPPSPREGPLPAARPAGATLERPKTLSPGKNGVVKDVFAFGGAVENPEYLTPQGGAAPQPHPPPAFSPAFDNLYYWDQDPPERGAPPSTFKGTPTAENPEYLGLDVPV
# Assay: Cellular phosphorylation assay, constitutive ErbB2 phosphorylation (Y1196) in engineered NIH 3T3 cells, Assay 4
The entries below come with measured log10(IC50) values attached.
Please note: log10 values; quantity IC50; unit nM.

// below: answered compounds
>  <Compound>
CCOc1ncc2ncnc(Nc3ccc(Oc4ccc5scnc5c4)c(C)c3)c2n1

>  <log10(IC50)>
2.75

$$$$
>  <Compound>
Cc1cc(Nc2ncnc3cnc(N(C)CC(F)F)nc23)ccc1Oc1ccc2c(c1)ncn2C

>  <log10(IC50)>
0.97

$$$$

Enquiry: Given the compound `CO[C@@H]1CCCN(c2ncc3ncnc(Nc4ccc(Oc5ccc6c(c5)ncn6C)c(C)c4)c3n2)C1` , what is its reported log10(IC50)?
Return: 1.73

Enquiry: Given the compound `Cc1cc(Nc2ncnc3cnc(N4CC5(C4)CC5(F)F)nc23)ccc1Oc1ccc2c(c1)ncn2C` , what is its reported log10(IC50)?
Return: 1.49

Enquiry: Given the compound `Cc1cc(Nc2ncnc3cnc(O[C@H]4CCNC[C@H]4F)nc23)ccc1Oc1ccc2c(c1)ncn2C` , what is its reported log10(IC50)?
Return: 1.73

Enquiry: Given the compound `Cc1cc(Nc2ncnc3cnc(N(C)[C@H]4C[C@H](O)C4)nc23)ccc1Oc1ccn2ncnc2c1` , what is its reported log10(IC50)?
Return: 1.88

Enquiry: Given the compound `Cc1cc(Nc2ncnc3cnc(O[C@H]4CNCC[C@@H]4F)nc23)ccc1Oc1ccc2c(c1)ncn2C` , what is its reported log10(IC50)?
Return: 1.87
